# key: entry, value: growth AUC
# Test system: Coprococcus comes
# assay: growth AUC relative to DMSO control (median of replicates) (fraction); higher = more growth (less inhibition), active = hit call of the paper
# conditions-used: 20 µM; 24 h
// no unit string in output, number only

# example entries with known answers
[
  {
    "compound": "CCNc1nc(NC(C)(C)C)[nH]c(=O)n1",
    "growth AUC": 0.988
  },
  {
    "compound": "Cc1ccc(C(C)NC(=O)[C@@H](NC(=O)OC(C)C)C(C)C)cc1 (stereo not given in full)",
    "growth AUC": 1.01
  },
  {
    "compound": "Cc1cc(C2CC2)nc(Nc2ccc(O)cc2)n1",
    "growth AUC": 0.998
  },
  {
    "compound": "CCCCOCCOC(=O)COc1ccc(Cl)cc1Cl",
    "growth AUC": 0.982
  }
]

Record `Cc1nn(C)c(OCC(=O)c2ccccc2)c1C(=O)c1ccc(Cl)cc1Cl` has Coprococcus comes growth AUC equal to 1.02

###

Known growth AUC of a selection of compounds
# Tested on: Collinsella aerofaciens
# assay: growth AUC relative to DMSO control (median of replicates) (fraction); higher = more growth (less inhibition), active = hit call of the paper
# conditions-used: 20 µM; 24 h
Note: the reply should be a number with no unit written.

The value of growth AUC measured for the compound `CCOC(=O)[C@@H](C)Oc1ccc(Oc2nc3ccc(Cl)cc3o2)cc1` turned out to be 1.02

The recorded growth AUC for entry `COC(=O)Nc1ccc(Cl)c(Cl)c1` equals 1.02

Per the record, `CCCCOCN(C(=O)CS(=O)(=O)[O-])c1c(CC)cccc1CC.[Na+]` has growth AUC of 1.01

###

// reported growth AUC per item
# Tested on: Odoribacter splanchnicus
# assay: growth AUC relative to DMSO control (median of replicates) (fraction); higher = more growth (less inhibition), active = hit call of the paper
# conditions-used: 20 µM; 24 h
The answer should be a number; do not append a unit.

[
  {
    "molecule": "CN(C)C(N)=O",
    "growth AUC": 1.03
  },
  {
    "molecule": "FC(F)(F)C(=NOCC1OCCO1)c1ccc(Cl)cc1",
    "growth AUC": 1.04
  },
  {
    "molecule": "CCCCOCN(C(=O)CS(=O)(=O)[O-])c1c(CC)cccc1CC.[Na+]",
    "growth AUC": 0.938
  }
]

Short answer for `Cn1cc(C(=O)Nc2ccccc2-c2cc(F)c(F)c(F)c2)c(C(F)F)n1` : growth AUC was 0.964

// growth AUC value for `CCCNCCOc1c(Cl)cc(Cl)cc1Cl` : 0.999

The reported growth AUC of the molecule `O=C(O)CCCc1c[nH]c2ccccc12` was 0.989

CC(C)(CO)C(O)(CCc1ccc(Cl)cc1)Cn1cncn1 (stereo not given) has a reported growth AUC of 0.979

Reported growth AUC ( `CCOC(=O)C1=NOC(c2ccccc2)(c2ccccc2)C1` ) = 0.944

What the record says about Clc1ccc(C(c2ccccc2Cl)C(Cl)Cl)cc1 (stereo not given) : growth AUC is 1.02

Record `CCCOC(=O)c1ccc(O)cc1` , field growth AUC: 0.945

Just so you know, measured growth AUC for `CC(C)Nc1nc(N)nc(Cl)n1` came out at 1.06

Item: `CCc1cc(C(=O)O)cc(CC)c1C1C(=O)N2CCOCCN2C1=O` | growth AUC: 1.13

###

# System: Bifidobacterium longum subsp. longum
# assay: growth AUC relative to DMSO control (median of replicates) (fraction); higher = more growth (less inhibition), active = hit call of the paper;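 active = AUC reduced over 20% with Padj below 0.05 in at least 2 of 3 replicates; inactive = otherwise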
# conditions-used: 20 µM; 24 h
Output constraint: value belongs to yes (1) (active), no (0) (inactive)

[
  {
    "molecule": "COC1CCC2(CC1)NC(=O)C(c1cc(C)ccc1C)C2O (stereo not given)",
    "class-label": "no (0)"
  },
  {
    "molecule": "O=S(=O)(Oc1ccc(Cl)cc1)c1ccccc1",
    "class-label": "no (0)"
  },
  {
    "molecule": "O=[N+]([O-])c1ccc(O)cc1",
    "class-label": "no (0)"
  },
  {
    "molecule": "COc1cccc(N(C)C(=S)Oc2cccc(C(C)(C)C)c2)n1",
    "class-label": "no (0)"
  },
  {
    "molecule": "CCSC(=O)N(CC)CC",
    "class-label": "no (0)"
  },
  {
    "molecule": "COCCN(C(=O)CO)c1c(C)cccc1C(=O)O",
    "class-label": "no (0)"
  },
  {
    "molecule": "Oc1c(Cl)cc(Cl)c(Cl)c1Cc1c(O)c(Cl)cc(Cl)c1Cl",
    "class-label": "yes (1)"
  },
  {
    "molecule": "N#CC(=NOCC1OCCO1)c1ccccc1",
    "class-label": "no (0)"
  }
]

Ask: Status in this test for `O=C1NC(=O)c2ccccc21` ?
Result: no (0)

Ask: For C=CCOC(Cn1ccnc1)c1ccc(Cl)cc1Cl (stereo not given) , what call appears in the results of this test?
Result: no (0)

###

A collection of molecules and their measured growth AUC
# System: Fusobacterium nucleatum subsp. animalis
# assay: growth AUC relative to DMSO control (median of replicates) (fraction); higher = more growth (less inhibition), active = hit call of the paper
# conditions-used: 20 µM; 24 h

The following molecules have reported results that may help.
[
  {
    "molecule": "CC(C)C1C2CCC1c1c(NC(=O)c3cn(C)nc3C(F)F)cccc12 (stereo not drawn)",
    "growth AUC": "0.906 (inactive)"
  },
  {
    "molecule": "Oc1ccccc1O",
    "growth AUC": "1.01 (inactive)"
  },
  {
    "molecule": "COCCOc1ccccc1S(=O)(=O)NC(=O)Nc1nc(OC)nc(OC)n1",
    "growth AUC": "0.983 (inactive)"
  }
]

Measured growth AUC of `Cc1ccc(Cl)cc1` : 1.1 (inactive)

Documented growth AUC of `CCNc1nc(NCC)nc(OC)n1` : 1.01 (inactive)

Value of measured growth AUC for the entry `FC(F)(F)/N=C1\SC(=Nc2ccccc2)N(c2ccccc2)\C1=N\C(F)(F)F` : 0.653 (inactive)

Lookup result for `CCN(CC)c1nc(C)cc(=O)[nH]1` ; measured growth AUC: 1.06 (inactive)

###

# Test system: Akkermansia muciniphila
# assay: growth AUC relative to DMSO control (median of replicates) (fraction); higher = more growth (less inhibition), active = hit call of the paper
# conditions-used: 20 µM; 24 h
reported-metric: growth AUC
Response field accepts a number only; no unit should be typed.

Recorded growth AUC, per entry:
[
  {
    "compound": "Clc1ccc(CSc2ccc(Cl)cc2)cc1",
    "subject-of-test": "Akkermansia muciniphila",
    "growth AUC": 0.977
  },
  {
    "compound": "CC(C)N(C)S(=O)(=O)NC(=O)c1cc(-n2c(=O)cc(C(F)(F)F)[nH]c2=O)c(F)cc1Cl",
    "subject-of-test": "Akkermansia muciniphila",
    "growth AUC": 0.971
  },
  {
    "compound": "NC(=O)Cc1cccc2ccccc12",
    "subject-of-test": "Akkermansia muciniphila",
    "growth AUC": 1.01
  },
  {
    "compound": "COC(=O)C(Cl)Cc1ccc(Cl)cc1 (stereo not given)",
    "subject-of-test": "Akkermansia muciniphila",
    "growth AUC": 1.01
  }
]

Next item in the queue.
The recorded growth AUC for entry `CCOC(=O)[C@@H](C)Oc1ccc(Oc2cnc3cc(Cl)ccc3n2)cc1` equals 0.987

###

# System: Escherichia coli ED1a
# assay: growth AUC relative to DMSO control (median of replicates) (fraction); higher = more growth (less inhibition), active = hit call of the paper;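 active = AUC reduced over 20% with Padj below 0.05 in at least 2 of 3 replicates; inactive = otherwise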
# conditions-used: 20 µM; 24 h
Respond using exactly one of the listed classes: t for active, f for inactive

Solved cases below.
[
  {
    "molecule": "CC(C)N(C(=O)CS(=O)CC(=O)O)c1ccc(F)cc1 (stereo unspecified)",
    "class-label": "f"
  },
  {
    "molecule": "CCCCCCCCc1c(CC)nc2ncnn2c1N",
    "class-label": "f"
  },
  {
    "molecule": "O=C(O)c1cccc2nnsc12",
    "class-label": "f"
  },
  {
    "molecule": "COC(=O)Nc1ccc(Cl)c(Cl)c1",
    "class-label": "f"
  },
  {
    "molecule": "CCOC(=O)Cc1[nH]nc2ccc(Cl)cc12",
    "class-label": "f"
  },
  {
    "molecule": "O=C(O)Cc1c[nH]c2ccccc12",
    "class-label": "f"
  },
  {
    "molecule": "COC(=O)c1ccccc1S(=O)(=O)NC(=O)Nc1nc(OC(F)F)cc(OC(F)F)n1",
    "class-label": "f"
  },
  {
    "molecule": "CCCCOCCOC(=O)COc1ccc(Cl)cc1Cl",
    "class-label": "f"
  }
]

Ask: Could you kindly confirm the outcome this assay logged for COC(=O)C(C)Oc1ccc(Oc2ccc(C(F)(F)F)cn2)cc1 (stereo unspecified) ?
Result: f

Ask: Which result was noted for this molecule in the test: C=CCO/N=C(\CCC)C1=C([O-])CC(C)(C)C(C(=O)OC)C1=O.[Na+] (stereo unspecified)
Result: f

Ask: What classification did `CCS(=O)(=O)c1nnc(N(C)C(=O)NC)s1` end up with in this test?
Result: f

Ask: Tell me the recorded outcome of this test for `COc1nc(N)nc(NC(C)(C)C)n1` .
Result: f

Ask: Assay outcome for `COc1cc(OC)nc(NC(=O)NS(=O)(=O)c2c(-c3nnn(C)n3)cnn2C)n1` : what was it?
Result: f
